Would you kindly list IC50 for each of these molecules?
Assay method text: DPPH radical scavenging assay
Type: biochemical
Condition summary: 20 µM DPPH, 30 min
Unit µM implied. Number only.

Query string: Output measured IC50 for this item: COc1cc(C2Oc3cc(-c4oc5cc(O)cc(O)c5c(=O)c4O)ccc3OC2COC(=O)CCCCCCCCCCC(=O)OCC2Oc3ccc(-c4oc5cc(O)cc(O)c5c(=O)c4O)cc3OC2c2ccc(O)c(OC)c2)ccc1O (stereo not shown)
Result string: 29

Query string: Check the records and state IC50 for COc1cc([C@H]2Oc3cc([C@H]4Oc5cc(O)cc(O)c5C(=O)[C@@H]4O)ccc3O[C@@H]2CO)ccc1O
Result string: 225

Query string: Report IC50, nothing else, for this molecule: COc1cc([C@H]2Oc3cc([C@H]4Oc5cc(O)cc(O)c5C(=O)[C@@H]4O)ccc3O[C@@H]2COC(=O)CCCCCCCCCCC(=O)OC[C@H]2Oc3ccc([C@H]4Oc5cc(O)cc(O)c5C(=O)[C@@H]4O)cc3O[C@@H]2c2ccc(O)c(OC)c2)ccc1O
Result string: 137

Query string: Determine from records and report IC50 for COc1cc(C2Oc3cc(-c4oc5cc(O)cc(O)c5c(=O)c4O)ccc3OC2CO)ccc1O (stereo not shown) [Compound 6, 2,3-Dehydrosilybin]
Result string: 6.43
